These entries and their values trace back to the supplement of paper PMC10065799.

Recorded phosphorylation enrichment for the following sequences
biological target: MERTK (UniProt Q12866); assay: phosphorylation enrichment, bacterial display (enrichment ratio); higher = better substrate or ligand; peptides without Tyr show the background;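 further: 11-residue human phosphosite peptides and single-mutation variants displayed on the E. coli surface, counted by deep sequencing, each peptide's frequency after selection divided by its frequency in the unselected input library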;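 further: frequency after pTyr selection over input frequency; kinase dosed for 20-30% of maximal phosphorylation in three min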
Sequence (Q12866 whole entry, looked up): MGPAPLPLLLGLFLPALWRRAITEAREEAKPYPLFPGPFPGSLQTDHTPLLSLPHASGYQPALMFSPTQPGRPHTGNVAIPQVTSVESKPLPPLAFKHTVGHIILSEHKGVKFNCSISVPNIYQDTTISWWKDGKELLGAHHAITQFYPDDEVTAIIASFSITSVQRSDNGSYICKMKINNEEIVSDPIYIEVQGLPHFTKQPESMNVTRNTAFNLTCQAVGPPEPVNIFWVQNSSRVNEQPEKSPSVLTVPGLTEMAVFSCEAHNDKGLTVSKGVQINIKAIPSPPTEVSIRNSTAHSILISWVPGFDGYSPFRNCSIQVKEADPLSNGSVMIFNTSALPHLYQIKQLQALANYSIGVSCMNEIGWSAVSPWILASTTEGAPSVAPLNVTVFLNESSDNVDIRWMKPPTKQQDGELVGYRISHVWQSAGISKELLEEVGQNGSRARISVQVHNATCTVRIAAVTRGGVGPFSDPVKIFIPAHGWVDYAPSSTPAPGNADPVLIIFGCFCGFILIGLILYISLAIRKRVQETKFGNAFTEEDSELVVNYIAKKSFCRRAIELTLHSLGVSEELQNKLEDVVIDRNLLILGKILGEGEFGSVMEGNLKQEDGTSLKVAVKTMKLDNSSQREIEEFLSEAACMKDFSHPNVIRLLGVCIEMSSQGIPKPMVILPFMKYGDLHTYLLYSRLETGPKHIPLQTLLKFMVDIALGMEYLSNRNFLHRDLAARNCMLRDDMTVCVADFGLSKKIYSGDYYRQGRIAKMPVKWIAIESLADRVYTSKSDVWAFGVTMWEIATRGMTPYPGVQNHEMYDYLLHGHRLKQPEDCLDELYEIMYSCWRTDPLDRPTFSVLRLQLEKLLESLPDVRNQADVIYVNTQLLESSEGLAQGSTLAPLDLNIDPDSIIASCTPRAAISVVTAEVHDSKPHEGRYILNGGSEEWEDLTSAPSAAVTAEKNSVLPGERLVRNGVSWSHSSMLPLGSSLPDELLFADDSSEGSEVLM
measuredParameter: phosphorylation enrichment

>>> print(df.to_string())
                                    seq           assayedsystem  observed
 0            EDGRLYAVKRS [PKMYT1_Y136]  MERTK (UniProt Q12866)     0.433
 1       QEIATYRRQLE [KRT14_Y415_L418Q]  MERTK (UniProt Q12866)     0.445
 2             YPLELYERVRM [PRKCG_Y312]  MERTK (UniProt Q12866)     0.432
 3  YRNKPYISWPS [CDC42BPB_Y1638_S1633Y]  MERTK (UniProt Q12866)     0.449
 4      RLNCIYFKDQT [RS1_Y165_W163C_YF]  MERTK (UniProt Q12866)     0.871
 5        SARFPYLMAEK [LDHB_Y173_R172P]  MERTK (UniProt Q12866)     0.325
 6     EEEYEYMNRRR [ERBB3_Y1199_D1194E]  MERTK (UniProt Q12866)     0.356
 7              KAWTIYRPEDS [ZBP1_Y165]  MERTK (UniProt Q12866)     0.478
 8             LEQQKYTVTVD [IKBKB_Y199]  MERTK (UniProt Q12866)      0.71
 9         PPTFRYERGSR [INPPL1_Y663_YF]  MERTK (UniProt Q12866)     0.753
10             GRRGQYVMLSE [TTC7A_Y396]  MERTK (UniProt Q12866)     0.673
11        RIVEIYTRRLQ [GCH1_Y175_S176T]  MERTK (UniProt Q12866)     0.605
12        PLDGEYVTLQI [TP53_Y327_F328V]  MERTK (UniProt Q12866)     0.477
13             GVYSRYFTTYD [CLCA1_Y661]  MERTK (UniProt Q12866)      3.71
14         DENCFYTRAAS [RPS19_Y54_W52C]  MERTK (UniProt Q12866)     0.461
15        ADGLEYPRTGL [MMUT_Y287_S288P]  MERTK (UniProt Q12866)     0.319
16   FMRGMYFRMTD [PLA2G6_Y541_K545T_YF]  MERTK (UniProt Q12866)     0.438
17              LKGQVYILGRE [ASS1_Y359]  MERTK (UniProt Q12866)      0.56
18           TQPSPYAVYRF [RPGRIP1_Y823]  MERTK (UniProt Q12866)      8.69
19       GTSLIYWILFT [G6PC3_Y214_T216I]  MERTK (UniProt Q12866)      1.46
20             EAVKNYTDKRG [PBRM1_Y672]  MERTK (UniProt Q12866)     0.478
21         TEAEPYFRSLR [NPHS1_Y1138_YF]  MERTK (UniProt Q12866)     0.447
22             RIRRRYCQVLN [IQCF1_Y144]  MERTK (UniProt Q12866)     0.609
23              SEPDLYCDPRG [PKP1_Y160]  MERTK (UniProt Q12866)      1.46
24        KDGIGYISAAE [CALM2_Y100_N98I]  MERTK (UniProt Q12866)     0.476
25         ADVLDYIKALN [HPRT1_Y81_L78V]  MERTK (UniProt Q12866)     0.542
26    MSGDVYSTDFF [NTRK2_Y702_R699G_YF]  MERTK (UniProt Q12866)      6.82
27            LTSKPYAFTAR [NDUFS1_Y236]  MERTK (UniProt Q12866)     0.649
28             DYYDLYGGEKF [PTPN11_Y66]  MERTK (UniProt Q12866)       3.7
